Data credit: paper PMC10386076

- testedSystem: S1R (Cavia porcellus)
- Construct: tissue Harlan-Winkelmann, Borchen, Germany; host or cells: guinea pig brain membrane homogenate
- Sequence (Q60492 whole entry): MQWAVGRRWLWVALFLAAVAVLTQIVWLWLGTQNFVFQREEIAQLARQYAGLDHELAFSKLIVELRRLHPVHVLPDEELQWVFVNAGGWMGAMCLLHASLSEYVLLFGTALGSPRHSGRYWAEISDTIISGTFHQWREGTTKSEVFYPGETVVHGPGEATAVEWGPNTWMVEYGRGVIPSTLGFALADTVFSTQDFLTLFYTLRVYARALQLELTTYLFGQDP
- procedureSummary: S1R radioligand displacement binding assay ([3H]-(+)-pentazocine)
- Set-up: species or system guinea pig
- Experimental: (R/S)-1a–3e were first evaluated for their binding affinity toward the S1R and S2R in a radioligand displacement assay. […] Nonspecific binding was determined using non-radiolabeled (+)-pentazocine and haloperidol in excess. All the binding experiments were carried out in duplicate. […] Haloperidol was used as a control compound in both assays. Five guinea pig brains were homogenized with the potter (500–800 rpm, 10 up and down strokes) in 6 volumes of cold 0.32 M sucrose. […]
Binary label based on Ki with cut-off 20 nM: below gives YES, not below gives NO.

Below, 4 compounds whose answers are already recorded.
compound: COc1ccc2cc(C(CO)CCN3CCC(Cc4ccccc4)CC3)ccc2c1 (centres unmarked) [Compound 3e]
classLabel: NO
--
compound: OCC(CCN1CCOCC1)c1ccc(-c2ccccc2)cc1 (centres unmarked) [Compound 1a]
classLabel: YES
--
compound: CN(CCC(CO)c1ccc2ccccc2c1)Cc1ccccc1 (centres unmarked) [Compound 2c]
classLabel: YES
--
compound: COc1ccc2cc(C(CO)CCN3CCCCC3)ccc2c1 (centres unmarked) [Compound 3d]
classLabel: NO

Say whether its Ki is strictly beneath 20 nM. Entry: OCC(CCN1CCCCC1)c1ccc2ccccc2c1 (centres unmarked) [Compound 2d]
YES
